Molecular target: AHR (Mus musculus)
Construct: endogenous in cells; host or cells: Hepa1-6 / Hepa1.6 (murine hepatoma); DRE-luciferase reporter transfected in A3, no transfection in A2
Sequence (P30561 10-805 limits assumed): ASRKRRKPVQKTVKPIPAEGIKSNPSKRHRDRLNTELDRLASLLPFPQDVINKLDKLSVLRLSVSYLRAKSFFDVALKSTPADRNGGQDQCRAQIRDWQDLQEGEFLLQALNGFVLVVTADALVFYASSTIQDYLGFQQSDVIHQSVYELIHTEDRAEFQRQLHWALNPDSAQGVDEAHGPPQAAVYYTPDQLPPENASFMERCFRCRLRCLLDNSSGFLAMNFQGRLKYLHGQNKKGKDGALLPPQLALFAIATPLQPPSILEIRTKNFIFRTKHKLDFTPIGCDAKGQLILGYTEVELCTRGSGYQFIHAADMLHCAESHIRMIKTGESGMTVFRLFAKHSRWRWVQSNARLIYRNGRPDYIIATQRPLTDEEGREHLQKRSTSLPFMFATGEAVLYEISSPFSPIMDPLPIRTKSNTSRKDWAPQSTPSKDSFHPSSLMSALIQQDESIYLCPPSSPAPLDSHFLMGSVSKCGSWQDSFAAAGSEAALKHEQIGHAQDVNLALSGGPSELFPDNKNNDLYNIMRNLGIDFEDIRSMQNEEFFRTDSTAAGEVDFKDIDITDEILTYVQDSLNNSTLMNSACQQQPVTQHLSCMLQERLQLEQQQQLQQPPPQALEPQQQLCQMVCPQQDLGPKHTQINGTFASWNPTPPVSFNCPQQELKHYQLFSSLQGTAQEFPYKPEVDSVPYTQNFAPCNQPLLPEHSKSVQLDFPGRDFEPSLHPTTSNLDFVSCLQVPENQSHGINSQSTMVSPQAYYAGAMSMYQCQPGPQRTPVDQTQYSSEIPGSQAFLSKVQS
Sequence (P11499 whole entry partner): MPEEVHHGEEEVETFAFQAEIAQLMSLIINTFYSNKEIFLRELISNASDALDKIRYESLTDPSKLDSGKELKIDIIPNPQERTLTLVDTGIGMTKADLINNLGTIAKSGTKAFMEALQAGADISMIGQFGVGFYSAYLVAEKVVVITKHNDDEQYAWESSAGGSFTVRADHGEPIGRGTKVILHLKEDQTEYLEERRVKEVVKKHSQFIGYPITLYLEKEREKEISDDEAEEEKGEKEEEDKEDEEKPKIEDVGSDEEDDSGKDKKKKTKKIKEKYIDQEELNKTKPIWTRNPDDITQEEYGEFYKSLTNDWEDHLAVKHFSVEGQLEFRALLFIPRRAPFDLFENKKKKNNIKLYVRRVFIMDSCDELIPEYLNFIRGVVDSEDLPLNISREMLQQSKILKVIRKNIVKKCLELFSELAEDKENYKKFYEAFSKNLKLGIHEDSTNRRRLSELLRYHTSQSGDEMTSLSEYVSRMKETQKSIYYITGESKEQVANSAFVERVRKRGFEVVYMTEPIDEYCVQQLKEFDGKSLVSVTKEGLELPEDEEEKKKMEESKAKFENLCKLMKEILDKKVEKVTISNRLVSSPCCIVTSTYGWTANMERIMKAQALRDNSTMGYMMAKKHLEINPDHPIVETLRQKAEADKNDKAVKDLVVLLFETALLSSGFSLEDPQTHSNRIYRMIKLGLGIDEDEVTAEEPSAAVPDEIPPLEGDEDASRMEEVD
Sequence (O08915 whole entry partner): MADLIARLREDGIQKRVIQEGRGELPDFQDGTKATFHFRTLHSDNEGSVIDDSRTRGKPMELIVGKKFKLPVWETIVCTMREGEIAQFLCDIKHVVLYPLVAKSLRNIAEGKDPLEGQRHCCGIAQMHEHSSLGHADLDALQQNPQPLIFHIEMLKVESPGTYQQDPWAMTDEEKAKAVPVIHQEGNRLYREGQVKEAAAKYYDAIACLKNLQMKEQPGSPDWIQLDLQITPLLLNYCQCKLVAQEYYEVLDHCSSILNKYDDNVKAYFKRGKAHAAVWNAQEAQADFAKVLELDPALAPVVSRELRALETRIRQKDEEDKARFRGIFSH
Assay: DRE-Luciferase Reporter Assay, Hepa1.6, agonist
Type: cell-based, murine
Settings: DRE-Luc Hepa1.6 - Agonist: Average EC50 (μM), Hepa1.6 cells, agonist mode, Table 3
Experimental: AHR binds to Dioxin Responsive Elements (DRE) upstream of genes that it activates. One measure of AHR activity is activation of a reporter gene, such as luciferase, downstream of one or multiple DRE elements. […] The next day, an AHR agonist compound is added. Cells are incubated for 6, 16 or 24 hours or another time point and then lysed for determination of luciferase activity as a read-out of the AHR activation. […]
Listed here are compounds together with their documented EC50.

Prompt line: Query EC50 for COC(=O)c1nc(C(=O)c2c[nH]c3ccccc23)sc1Br [Compound I-53]
Response line: 0.01 to 0.1 µM

Prompt line: Query EC50 for CCc1csc(C(=O)c2c[nH]c3ccccc23)n1 [Compound I-57]
Response line: < 0.01 µM

Prompt line: Query EC50 for CC(C)c1csc(C(=O)c2c[nH]c3cc(C(=O)O)ccc23)n1 [Compound I-59]
Response line: 0.1 to 1 µM

Prompt line: Query EC50 for COC(=O)c1nc(C(=O)c2c[nH]c3ccccc23)sc1N [Compound I-56]
Response line: < 0.01 µM

Prompt line: Query EC50 for COc1ccc2c(C(=O)c3nc(C(C)(C)C)cs3)c[nH]c2c1 [Compound I-60]
Response line: < 0.01 µM

Prompt line: Query EC50 for COC(=O)c1nc(C(=O)c2c[nH]c3ccccc23)sc1Cl [Compound I-55]
Response line: 0.01 to 0.1 µM

Prompt line: Query EC50 for Nc1sc(C(=O)c2c[nH]c3ccccc23)nc1C(F)(F)F [Compound I-51]
Response line: < 0.01 µM

Prompt line: Query EC50 for COC(=O)c1ccc2c(C(=O)c3nc(C(C)C)cs3)c[nH]c2c1 [Compound I-58]
Response line: 0.01 to 0.1 µM

Prompt line: Query EC50 for N#Cc1nc(C(=O)c2c[nH]c3ccccc23)sc1N [Compound I-50]
Response line: < 0.01 µM

---

Biological target: AHR (Homo sapiens, UniProt P35869)
Construct: endogenous in cells; host or cells: HepG2 (human), DRE-luciferase reporter stably or transiently transfected
Sequence (P35869 11-848): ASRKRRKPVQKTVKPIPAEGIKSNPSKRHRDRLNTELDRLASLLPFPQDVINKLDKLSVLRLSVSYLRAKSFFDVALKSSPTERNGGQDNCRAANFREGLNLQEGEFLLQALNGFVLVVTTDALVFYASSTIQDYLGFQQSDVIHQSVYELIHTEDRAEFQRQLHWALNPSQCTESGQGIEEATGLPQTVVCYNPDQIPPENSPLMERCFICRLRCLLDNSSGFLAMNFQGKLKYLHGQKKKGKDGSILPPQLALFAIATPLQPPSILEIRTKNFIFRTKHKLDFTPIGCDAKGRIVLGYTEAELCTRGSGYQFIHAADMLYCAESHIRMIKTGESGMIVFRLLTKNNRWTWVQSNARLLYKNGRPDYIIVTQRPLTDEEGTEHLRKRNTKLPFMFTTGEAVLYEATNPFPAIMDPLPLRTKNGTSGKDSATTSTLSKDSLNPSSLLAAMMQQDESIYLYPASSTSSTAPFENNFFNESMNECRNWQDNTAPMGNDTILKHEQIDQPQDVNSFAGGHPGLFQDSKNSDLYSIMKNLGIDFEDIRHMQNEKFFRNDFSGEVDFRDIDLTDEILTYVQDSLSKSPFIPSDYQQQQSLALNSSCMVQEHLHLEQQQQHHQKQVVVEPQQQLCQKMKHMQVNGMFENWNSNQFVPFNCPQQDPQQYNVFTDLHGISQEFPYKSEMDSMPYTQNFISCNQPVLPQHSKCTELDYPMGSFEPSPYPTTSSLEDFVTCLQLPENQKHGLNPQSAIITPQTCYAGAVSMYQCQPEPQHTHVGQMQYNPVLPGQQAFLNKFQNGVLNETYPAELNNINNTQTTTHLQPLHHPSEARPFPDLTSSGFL
Assay: DRE-Luciferase Reporter Assay, HepG2, agonist
Type: cell-based
Settings: HepG2 cells, agonist mode, Table 3, read-out: DRE-Luc HepG2 - Agonist: Average EC50
READOUT_LABEL: EC50

Look over these answered cases.
COC(=O)c1ccc2c(C(=O)c3nc(C(C)C)cs3)c[nH]c2c1 [Compound I-58] : 10 to 100 nM
CC(C)c1csc(C(=O)c2c[nH]c3cc(C(=O)O)ccc23)n1 [Compound I-59] : 100 to 1000 nM
COc1ccc2c(C(=O)c3nc(C(C)(C)C)cs3)c[nH]c2c1 [Compound I-60] : < 10 nM
CCc1csc(C(=O)c2c[nH]c3ccccc23)n1 [Compound I-57] : < 10 nM

// below: EC50 requested for another molecule
Prompt line: Query EC50 for COC(=O)c1nc(C(=O)c2c[nH]c3ccccc23)sc1N [Compound I-56]
Response line: < 10 nM
